MEASUREMENT_TYPE: logP
One number for each entry.

Check out these entries, answers already filled in.
{"SMILES_TEXT": "CC(=O)Nc1ccc(C#N)cc1", "logP": 1.37}
{"SMILES_TEXT": "O=C1CN=C(c2ccc[nH]2)c2cc(Cl)ccc2N1", "logP": 2.59}
{"SMILES_TEXT": "CC(=O)NC1=CC(=O)N(c2ccc(Cl)cc2)C1=O", "logP": 0.75}
{"SMILES_TEXT": "Cc1c(-c2ccccc2)oc2ccccc2c1=O", "logP": 3.92}
{"SMILES_TEXT": "CCOC(=O)CON=Cc1ccc(OCCOC(=O)c2cc(OC)c(OC)c(OC)c2)c(OC)c1", "logP": 3.26}

For each entry beneath this line, provide reported logP.
1. CC(=O)Nc1ccc(CN(C)N=Nc2ccc(C(=O)O)cc2)cc1
2. NC(=O)c1cccnc1N
3. NC(=O)c1ncccc1O

1: 3.35; 2: 0.88; 3: 0.65

Where do the numbers come from? From the OPERA property sets (Mansouri et al. 2018).
